Test system: Onchocerca lienalis
procedure-summary: WHO-TDR: Onchocerciasis
Type: functional
Design: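 at 12.5 µM on microfilariae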
measurement-name: % Inhibition (%)
Record the value in %, omitting the unit from your answer.

For NC(=O)c1ccc(NC(=O)c2c[nH]c(=O)n(-c3ccc(F)cc3)c2=O)cc1 , what is its reported % Inhibition?
0

For O=C(Nc1ccc(-c2cn3c(n2)SCC3)cc1)C1CCCC1 , what is its reported % Inhibition?
0

For O=C(Cc1ccccc1)Nc1nnc(SCC(=O)NC2CCCC2)s1 , what is its reported % Inhibition?
6.7

For CCc1ccccc1-n1c(C)cn2c3c(=O)n(CC(C)C)c(=O)n(C)c3nc12 , what is its reported % Inhibition?
20

For COc1cc(C)c(Cl)cc1S(=O)(=O)Nc1ccc(Nc2nc(C)cc(N3CCOCC3)n2)cc1 , what is its reported % Inhibition?
46.7

For CCCc1cc(=O)n(CC(=O)Nc2ccc(C)cc2)c(-n2nc(C)cc2C)n1 , what is its reported % Inhibition?
27.7

For COc1ccc(C(=O)Nc2nnc(SCC(=O)NCc3ccccc3Cl)s2)c(OC)c1 , what is its reported % Inhibition?
0

For CC(C)Sc1ccc(C(=O)Nc2nc(-c3ccccn3)cs2)cc1 , what is its reported % Inhibition?
86.7

For CCCCN(C)S(=O)(=O)c1ccc(C(=O)N2CCN(c3nc4c(C)ccc(C)c4s3)CC2)cc1 , what is its reported % Inhibition?
13.3

For CCN1CCc2c(sc(NC(=O)c3ccccc3)c2-c2nc3ccccc3s2)C1 , what is its reported % Inhibition?
0

For COc1ccc(C(=O)Nc2nnc(SCC(=O)Nc3cc(C(F)(F)F)ccc3Cl)s2)cc1OC , what is its reported % Inhibition?
26.67

For O=C(Nc1ccncc1)c1cccn(Cc2ccc(F)cc2)c1=O , what is its reported % Inhibition?
-1

For CC(C)(C)c1ccc(-c2csc(NC(=O)c3ccc4ncsc4c3)n2)cc1 , what is its reported % Inhibition?
33.3

For CC(C)N1CCc2c(sc(NC(=O)COc3ccc(Cl)cc3Cl)c2C(N)=O)C1 , what is its reported % Inhibition?
20

For Fc1ccccc1CSc1ccc(-c2ccccn2)nn1 , what is its reported % Inhibition?
97

For CN(CC1CCCO1)S(=O)(=O)c1ccc(C(=O)Nc2nc3c(s2)CSc2ccccc2-3)cc1 (stereo unspecified) , what is its reported % Inhibition?
13.3

For Cc1ccccc1Cn1cc(C(=O)Nc2cccc(Br)c2)ccc1=O , what is its reported % Inhibition?
26.7

For COC(=O)c1ccc(NC(=O)CSc2nnc(NC(=O)c3cc(Cl)ccc3OC)s2)cc1 , what is its reported % Inhibition?
0

For O=C(Nc1nc(-c2ccccn2)cs1)c1ccc2ncsc2c1 , what is its reported % Inhibition?
66.7

For O=C(Nc1cc2ccccc2cc1NC(=O)c1ccc2c(c1)OCCO2)c1ccc2c(c1)OCCO2 , what is its reported % Inhibition?
13.3

For O=C(CSc1ccc(-c2ccc(-n3cccn3)cc2)nn1)Nc1ccc2c(c1)OCO2 , what is its reported % Inhibition?
13.3
